Experimental System: T1, human Klotho β (human, UniProt Q86Z14 1-1044)
T1 sequence (looked up): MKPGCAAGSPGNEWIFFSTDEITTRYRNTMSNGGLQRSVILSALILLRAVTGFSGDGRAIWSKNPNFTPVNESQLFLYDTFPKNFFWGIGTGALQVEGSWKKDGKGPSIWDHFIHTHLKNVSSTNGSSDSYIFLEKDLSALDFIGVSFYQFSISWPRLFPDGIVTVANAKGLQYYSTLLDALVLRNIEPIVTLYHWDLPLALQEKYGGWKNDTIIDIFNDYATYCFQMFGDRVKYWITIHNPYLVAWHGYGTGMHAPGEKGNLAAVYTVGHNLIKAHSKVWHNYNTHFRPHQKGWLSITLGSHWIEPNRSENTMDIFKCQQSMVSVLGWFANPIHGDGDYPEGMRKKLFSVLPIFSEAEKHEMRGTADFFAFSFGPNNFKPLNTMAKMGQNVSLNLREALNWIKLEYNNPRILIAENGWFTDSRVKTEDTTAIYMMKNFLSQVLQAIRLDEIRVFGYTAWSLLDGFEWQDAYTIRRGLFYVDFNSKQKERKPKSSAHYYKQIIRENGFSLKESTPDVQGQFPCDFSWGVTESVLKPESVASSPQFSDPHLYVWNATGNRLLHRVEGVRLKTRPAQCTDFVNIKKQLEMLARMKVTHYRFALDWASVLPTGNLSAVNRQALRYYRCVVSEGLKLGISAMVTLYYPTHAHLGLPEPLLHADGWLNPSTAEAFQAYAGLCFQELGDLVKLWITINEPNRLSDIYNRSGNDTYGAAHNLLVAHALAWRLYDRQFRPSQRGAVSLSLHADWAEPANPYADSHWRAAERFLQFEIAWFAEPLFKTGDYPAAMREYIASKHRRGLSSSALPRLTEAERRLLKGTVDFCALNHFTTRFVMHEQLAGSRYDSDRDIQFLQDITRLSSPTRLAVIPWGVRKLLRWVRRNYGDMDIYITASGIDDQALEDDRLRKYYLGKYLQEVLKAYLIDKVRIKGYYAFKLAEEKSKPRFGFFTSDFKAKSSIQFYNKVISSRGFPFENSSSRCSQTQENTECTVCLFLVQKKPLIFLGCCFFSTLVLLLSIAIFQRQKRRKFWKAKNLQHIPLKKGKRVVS
Assay Info: cell-based or functional assay
Measurement Kind: % max activity of antagonism of FGF21 (pErk1/2, 293 HEK hKLB cells) (%)

1. PPDVGSSDPLSMVGPSAGRSPSYAS [FGF21 25mer A17]
99.7
2. PPDVASSDPLSMVGPSQGRSPSYAS [FGF21 25mer A5]
102
3. PPDVGSSDPLSMVGASQGRSPSYAS [FGF21 25mer A15]
93.9
4. PPDVGSSDPLAMVGPSQGRSPSYAS [FGF21 25mer A11]
98

P = PPDVGSSDPLSMVGPSQGASPSYAS [FGF21 25mer A19]
Q = PPDAGSSDPLSMVGPSQGRSPSYAS [FGF21 25mer A4]
## Task Hi, I'm comparing two records. Which one has the lower % max activity of antagonism of FGF21 (pErk1/2, 293 HEK hKLB cells), P or Q ? State your choice using its label.
## Result Q
(Q: 63.6%, P: 100%)
